Measured log10 IC50, listed per entry for reference.
tested system: Human fibrinogen receptor (αIIb β3) (Homo sapiens, UniProt P05106+P08514)
Construct: Human fibrinogen receptor (αIIb β3) was purified from outdated platelets
protocol details: Purified IIb/IIIa receptor assay (solid phase receptor assay, biotinylated vitronectin competition)
measurement parameters: inhibition of 50% of the maximum binding of biotinylated vitronectin; 1 nM labeled ligand, 2 hours, room temperature, highest concentration of test compound 1.0×10^-4 M
Counter-ions that a name gives are not always drawn.
Parameter value (number): base-10 log of IC50 in µM.

Use these answered entries as a reference point.
molecule | log10 IC50
O=C(O)CC(c1cc(F)cc(F)c1)c1cccc(NS(=O)(=O)c2cccc(NC(=S)NCc3ccccc3)c2)c1 (centres unmarked) | 1.28
N=C(N)Nc1cccc(NC(=O)Nc2cccc(OCC(=O)O)c2)c1 [Example 52, trifluoroacetate salt] | 1.60
CC(CC(=O)O)c1cccc(CNC(=O)c2cccc(NC(N)=NC#N)c2)c1 (racemic) | 1.42
CCOC(=O)CCc1cccc(CNC(=O)c2cccc(C#N)c2)c1 [Example 19, diacetate salt] | 1.76

Record COc1ccccc1C(CC(=O)O)c1cccc(CNC(=O)c2cccc(NC(=N)N)c2)c1 (racemic) [Example 63, trifluoroacetate salt hydrate] , field log10 IC50: -0.34

Record N=C(N)Nc1cccc(C#Cc2cccc(C(CC(=O)O)c3ccccc3)c2)c1 (centres unmarked) [Example 74, trifluoroacetate salt] , field log10 IC50: 1.30

Record O=C(O)CC(c1cc(F)cc(F)c1)c1cccc(CNC(=O)c2cccc(NC3=NCCCN3)c2)c1 (racemic) [Example 62, trifluoroacetate salt monohydrate] , field log10 IC50: 0.28

Record N=C(N)Nc1cccc(S(=O)(=O)Nc2cccc(C3CC(=O)Oc4ccccc43)c2)c1 (centres unmarked) [Example 100, Trifluoroacetate Salt] , field log10 IC50: 0.37

Record N=C(N)Nc1cccc(NC(=O)NCc2cccc(CCC(=O)O)c2)c1 [Example 53, trifluoroacetate salt] , field log10 IC50: 0.42

Record N=C(N)Nc1cccc(S(=O)(=O)Nc2cccc(C(CC(=O)O)c3cc(F)cc(F)c3)c2)c1 (centres unmarked) [Example 78, Trifluoroacetate Salt] , field log10 IC50: -0.10

Record N=C(N)Nc1cccc(C(=O)Nc2cccc(CC(=O)O)c2)c1 [Example 50, trifluoroacetate salt] , field log10 IC50: 1.74

Record N=C(N)Nc1cc(C(=O)NCc2cccc(C(CC(=O)O)c3cc(F)cc(F)c3)c2)cc(C(F)(F)F)c1 (racemic) [Example 61, trifluoroacetate salt hydrate] , field log10 IC50: -0.15

Record N=C(N)Nc1cccc(C(=O)Nc2cccc(CCC(=O)O)c2)c1 [Example 36, trifluoroacetate salt] , field log10 IC50: 1.86

###

tested system: Human fibrinogen receptor (αIIb β3) (Homo sapiens, UniProt P05106+P08514)
Construct: Human fibrinogen receptor (αIIb β3) was purified from outdated platelets
protocol details: Purified IIb/IIIa receptor assay (solid phase receptor assay, biotinylated vitronectin competition)
measurement parameters: inhibition of 50% of the maximum binding of biotinylated vitronectin; 1 nM labeled ligand, 2 hours, room temperature, highest concentration of test compound 1.0×10^-4 M
Counter-ions that a name gives are not always drawn.
Measured IC50, listed per entry for reference.
A complete answer gives the number followed by the unit.

compound | assay result
CCC(CC(=O)O)c1cccc(NS(=O)(=O)c2cccc(NC(=N)N)c2)c1 (stereo not shown) [Example 94, Trifluoroacetate Salt] | 2.05 µM
COc1ccc2[nH]c(Nc3cccc(C(=O)NCc4cccc(C(C)CC(=O)O)c4)c3)nc2c1 (racemic) [Example 70, trifluoroacetate salt] | 7.66 µM
N=C(N)Nc1cccc(C(=O)NCCc2cccc(CC(=O)O)c2)c1 [Example 44, monohydrate trifluoroacetate salt] | 0.094 µM

Now consider the entry below.
Record C[C@@H](CC(=O)O)c1cccc(CNC(=O)c2cccc(NC(=N)N)c2)c1 , field IC50: 17.6 µM

###

tested system: Human vitronectin receptor (αv β3) (Homo sapiens, UniProt P05106+P06756)
Construct: Human vitronectin receptor(αv β3) was purified from human placenta; from tissue; host or cells: human placenta
protocol details: Vitronectin adhesion assay (solid phase receptor assay, biotinylated vitronectin competition)
Assay type: binding
measurement parameters: inhibition of 50% of the maximum binding of biotinylated vitronectin; 1 nM labeled ligand, 2 hours, room temperature, highest concentration of test compound 1.0×10^-4 M; read-out: AvB3 IC50
Structures can show the parent of a compound that is named as a salt.
endpoint name: pIC50
Please report pIC50 as the negative decimal logarithm of the molar concentration, giving only the number.

molecule | endpoint name | assay result
N=C(N)Nc1cccc(/C=C/c2cccc(C(CC(=O)O)c3ccccc3)c2)c1 (stereo not shown) [Example 75, Bis(trifluoroacetate) Salt] | pIC50 | 7.26
N=C(N)Nc1cccc(COc2cccc(C(CC(=O)O)c3ccccc3)c2)c1 (stereo not shown) [Example 96, Trifluoroacetate Salt] | pIC50 | 6.36
N=C(N)Nc1cccc(C(=O)Nc2cccc(CCC(=O)O)c2)c1 [Example 36, trifluoroacetate salt] | pIC50 | 4.86
CC(=O)NC(Cc1cccc(CNC(=O)c2cccc(NC(=N)N)c2)c1)C(=O)O (stereo not shown) [Example 45, bis(trifluoroacetate) salt] | pIC50 | 7.14
CCOC(=O)CC(CC)c1cccc(CNC(=O)c2cccc(NC(=N)N)c2)c1 (stereo not shown) [Example 41, trifluoroacetate salt] | pIC50 | 4.95

Record CCOC(=O)CCc1cccc(CNC(=O)c2cccc(NC(=N)N)c2)c1 [Example 34, trifluoroacetate salt] , field pIC50: 5.53

###

tested system: Human vitronectin receptor (αv β3) (Homo sapiens, UniProt P05106+P06756)
Construct: Human vitronectin receptor(αv β3) was purified from human placenta; from tissue; host or cells: human placenta
protocol details: Vitronectin adhesion assay (solid phase receptor assay, biotinylated vitronectin competition)
Assay type: binding
measurement parameters: inhibition of 50% of the maximum binding of biotinylated vitronectin; 1 nM labeled ligand, 2 hours, room temperature, highest concentration of test compound 1.0×10^-4 M; read-out: AvB3 IC50
Where a name gives a salt, the structure may show the parent alone.
Measured pIC50, listed per entry for reference.
Please report pIC50 as the negative decimal logarithm of the molar concentration, giving only the number.

Use these answered entries as a reference point.
molecule | tested system | assay result
N=C(N)Nc1cccc(C(=O)NCCc2cccc(CC(=O)O)c2)c1 [Example 44, monohydrate trifluoroacetate salt] | Human vitronectin receptor (αv β3) (Homo sapiens, UniProt P05106+P06756) | 5.49
N=C(N)Nc1cccc(C(=O)Nc2cccc(C(CC(=O)O)c3ccccc3)c2)c1 (stereo not shown) [Example 2, trifluoroacetate salt] | Human vitronectin receptor (αv β3) (Homo sapiens, UniProt P05106+P06756) | 6.30
CC(C)(C)OC(=O)CC(c1ccccc1)c1cccc(NS(=O)(=O)c2cccc(NC(N)=NC#N)c2)c1 (stereo not shown) | Human vitronectin receptor (αv β3) (Homo sapiens, UniProt P05106+P06756) | 7.39

The observed pIC50 for CC(C)C(CC(=O)O)c1cccc(CNC(=O)c2cccc(NC(=N)N)c2)c1 (stereo not shown) [Example 43, trifluoroacetate salt] when tested with Human vitronectin receptor (αv β3) (Homo sapiens, UniProt P05106+P06756) stands at 8.14

The observed pIC50 for N=C(N)Nc1cccc(C(=O)NCc2cccc(CC(=O)O)c2)c1 [Example 49, trifluoroacetate salt] when tested with Human vitronectin receptor (αv β3) (Homo sapiens, UniProt P05106+P06756) stands at 5.77

The observed pIC50 for O=C(O)CCc1cccc(CNC(=O)c2cccc(NC(=O)NCc3ccccc3)c2)c1 when tested with Human vitronectin receptor (αv β3) (Homo sapiens, UniProt P05106+P06756) stands at 5.45

The observed pIC50 for CC(CC(=O)O)c1cccc(CNC(=O)c2cccc(NC(N)=NC#N)c2)c1 (racemic) when tested with Human vitronectin receptor (αv β3) (Homo sapiens, UniProt P05106+P06756) stands at 6.70

###

tested system: Human vitronectin receptor (αv β3) (Homo sapiens, UniProt P05106+P06756)
Construct: Human vitronectin receptor(αv β3) was purified from human placenta; from tissue; host or cells: human placenta
protocol details: Vitronectin adhesion assay (solid phase receptor assay, biotinylated vitronectin competition)
Type: binding
measurement parameters: positive control included on each plate; range given in text; read-out: αv β3 antagonist IC50 (positive control)
pIC50: −log10 of the molar value.
endpoint name: pIC50

Record N=C(N)NCCCCC(=O)NCC(=O)NC(CC(=O)O)c1cccnc1 (stereo not shown) , field pIC50: 8.00 to 8.52

###

tested system: Human vitronectin receptor (αv β3) (Homo sapiens, UniProt P05106+P06756)
Construct: Human vitronectin receptor(αv β3) was purified from human placenta; from tissue; host or cells: human placenta
protocol details: Vitronectin adhesion assay (solid phase receptor assay, biotinylated vitronectin competition)
Type: binding
measurement parameters: inhibition of 50% of the maximum binding of biotinylated vitronectin; 1 nM labeled ligand, 2 hours, room temperature, highest concentration of test compound 1.0×10^-4 M; read-out: AvB3 IC50
Structures can show the parent of a compound that is named as a salt.
Measured log10 IC50, listed per entry for reference.
Parameter value (number): base-10 log of IC50 in nM.

Use these answered entries as a reference point.
compound | assay result
O=C(O)CC(c1cc(F)cc(F)c1)c1cccc(CNC(=O)c2cccc(NC3=NCCCN3)c2)c1 (racemic) [Example 62, trifluoroacetate salt monohydrate] | -0.06
N=C(N)Nc1cccc(/C=C\c2cccc(C(CC(=O)O)c3ccccc3)c2)c1 (stereo not shown) [Example 76, Bis(trifluoroacetate) Salt] | 1.94
CCC(CC(=O)O)c1cccc(CNC(=O)c2ccc(Cl)c(NC(=N)N)c2)c1 (racemic) [Example 58, trifluoroacetate salt] | 1.06

Record NC(=O)Nc1cccc(S(=O)(=O)Nc2cccc(C(CC(=O)O)c3ccccc3)c2)c1 (stereo not shown) , field log10 IC50: 2.81

Record O=C(O)CC(c1cc(F)cc(F)c1)c1cccc(NS(=O)(=O)c2cccc(NC3=NCCCN3)c2)c1 (stereo not shown) [Example 97, Bis(trifluoroacetate) Salt] , field log10 IC50: -0.12

Record N=C(N)Nc1cccc(S(=O)(=O)Nc2cccc(C(CC(=O)O)c3c(F)c(F)cc(F)c3F)c2)c1 (stereo not shown) [Example 82, Trifluoroacetate Salt] , field log10 IC50: 2.28

Record N=C(N)Nc1cccc(S(=O)(=O)Nc2cccc(C(CC(=O)O)c3cc(Cl)cc(Cl)c3)c2)c1 (stereo not shown) [Example 77, Trifluoroacetate Salt] , field log10 IC50: 1.51

Record CC(CC(=O)OC(C)(C)C)c1cccc(CNC(=O)c2cccc(NC(=N)N)c2)c1 (stereo not shown) [Example 39, trifluoroacetate salt] , field log10 IC50: 3.93

Record C[C@H](CC(=O)O)c1cccc(CNC(=O)c2cccc(NC(=N)N)c2)c1 [Example 56, trifluoroacetate salt hydrate] , field log10 IC50: 0.84

Record C[C@@H](CC(=O)O)c1cccc(CNC(=O)c2cccc(NC(=N)N)c2)c1 , field log10 IC50: 2.28

Record COC(=O)Cc1cccc(CNC(=O)c2cccc(NC(=N)N)c2)c1 [Example 47, trifluoroacetate salt] , field log10 IC50: 4.56

Record N=C(N)Nc1cccc(C#Cc2cccc(C(CC(=O)O)c3ccccc3)c2)c1 (stereo not shown) [Example 74, trifluoroacetate salt] , field log10 IC50: 3.17

Record NC(=O)Nc1cccc(C(=O)NCc2cccc(CCC(=O)O)c2)c1 , field log10 IC50: 3.97

Record N=C(N)Nc1cccc([S+]([O-])Cc2cccc(C(CC(=O)O)c3ccccc3)c2)c1 (stereo not shown) [Example 88, Trifluoroacetate Salt] , field log10 IC50: 1.29

Record O=C(O)CC(c1cc(F)cc(F)c1)c1cccc(NS(=O)(=O)c2cccc(NC=NCc3ccccc3)c2)c1 (stereo not shown) [Example 84, Trifluoroacetate Salt] , field log10 IC50: 1.91

Record N=C(N)Nc1cccc(C(=O)NCc2cccc(C(CC(=O)O)c3cc(Cl)cc(Cl)c3)c2)c1 (stereo not shown) , field log10 IC50: 1.30

Record CCC(CC(=O)O)c1cccc(CNC(=O)c2cc(NC(=N)N)cc(C(F)(F)F)c2)c1 (racemic) [Example 59, trifluoroacetate salt] , field log10 IC50: 0.59
